B1: VH:VL chains; a variant is named by its letters at X, in order (parent)
chain 1: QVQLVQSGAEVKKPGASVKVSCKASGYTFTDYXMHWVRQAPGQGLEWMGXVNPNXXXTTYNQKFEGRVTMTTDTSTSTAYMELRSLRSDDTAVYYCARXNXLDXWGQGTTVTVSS
chain 2: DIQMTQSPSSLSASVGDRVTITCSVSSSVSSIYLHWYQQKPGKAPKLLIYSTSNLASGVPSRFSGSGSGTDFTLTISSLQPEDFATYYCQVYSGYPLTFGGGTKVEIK

variants of: B1; assay: yeast display scFab, FACS + sequencing
Measurement name: non-specific binding call

VGGTSDGD    no binding
YKGRGSLV    binds
VRRGSSVV    binds
FRGRGAAY    binds
YKARGAGA    binds

The following variants each have a reported value; give each one's non-specific binding call.
1. VAGTDDWV
2. SETGGFVV

Key:
["no binding", "no binding"]

The reported numbers originate from the emibetuzumab library of Makowski et al. (2022).
